These measurements were taken from PubChem BioAssay (NCI).

Test: NCI Yeast Anticancer Drug Screen. Data for the rad50 strain (AID 155);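 also: 0% = growth of vehicle-only cultures of the same strain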
Details: S. cerevisiae rad50 strain growth inhibition; at 50.0 µM (retest, dose inferred, filed as 5.0); active compounds read high
This is part of a sample that, as a whole, favours compounds with a hit. Of some 79,000 tested, about 15% had one in any assay.
Quantity kind: growth inhibition (%)
The figure you give is taken to be in %; do not add the unit.

Incoming: Look up growth inhibition of Cc1ccc(S/C(=C\C(=O)O)c2ccccc2)cc1 and report it.
Outgoing: 47

Incoming: Look up growth inhibition of Cc1cccc(C(C)(C)C)c1NC(=O)C(C#N)C1=C(Cl)C(=O)c2ccccc2C1=O (stereo unspecified) and report it.
Outgoing: 97

Incoming: Look up growth inhibition of Cc1ccc([N+]2=NC(c3ccccc3)=NN(c3ccccc3)C2)cc1 and report it.
Outgoing: 41

Incoming: Look up growth inhibition of c1ccc(CCN2CCc3ccccc3C2)cc1 and report it.
Outgoing: 49

Incoming: Look up growth inhibition of Cn1c(=O)c2c(nc(N)n2C2OC(CO)C(O)C2O)n(C)c1=O (stereo unspecified) and report it.
Outgoing: 22

Incoming: Look up growth inhibition of CCCCNC1CCC2(SCCS2)c2[nH]c3ccccc3c21 (stereo unspecified) and report it.
Outgoing: 49
